experiment: qHTS profiling of the MIPE4 collection as inhibitors of Plasmodium falciparum (3D7) proliferation (AID 743344);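 note: scaled between DMSO vehicle wells and 0.29 µM artemisinin as full inhibition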; conditions: P. falciparum 3D7 in erythrocytes, SYBR Green DNA fluorescence, 72 h; at 28.5 µM unless noted
Assign met whenever parasite growth, % of DMSO control does not fall below 20%; assign not met whenever it does.

compound=Cc1ccc(NC(=O)c2ccc(CN3CCN(C)CC3)cc2)cc1Nc1nc(-c2cccnc2)cs1 category_label="not met"
compound=CCCCC[C@H](O)C=C[C@H]1[C@H](O)CC(=O)[C@H]1CC=CCCCC(=O)O category_label=met
compound=NCc1c[nH]c(=S)n1[C@H]1CCc2c(F)cc(F)cc2C1 category_label="not met"
compound=C#CCN(C)CC1=Cc2ccccc2Oc2ccccc21 category_label=met
compound=CNC(=O)c1cc(Oc2ccc(NC(=O)Nc3ccc(Cl)c(C(F)(F)F)c3)c(F)c2)ccn1 category_label="not met"
compound=CCCCCCCCCCCCCCCC(=O)O[C@H]1[C@@H](O)[C@@H](O)[C@@H]([C@H](NC(=O)[C@@H]2C[C@@H](CCC)CN2C)[C@H](C)Cl)O[C@@H]1SC category_label=met
compound=COc1nc(C)cnc1NS(=O)(=O)c1cccnc1-c1ccc(-c2nnco2)cc1 category_label=met
compound=CC1(C)[C@H]2CC[C@]3(C)[C@@H](C(=O)C=C4[C@@H]5C[C@@](C)(C(=O)O)CC[C@]5(C)CC[C@]43C)[C@@]2(C)CC[C@@H]1O category_label=met
compound=COc1cc2c(cc1Cc1cccc(Cl)c1F)c(=O)c(C(=O)O)cn2[C@H](CO)C(C)C category_label="not met"
compound=CCC[C@H](Nc1nc(-c2ccc(NC(=O)NCC)c(OC)c2)ncc1C)c1cccnc1 category_label="not met"
compound=O=C(O)c1ccc(O)c2ncc(N3CCOCC3)cc12 category_label="not met"
compound=CN(C)N=Nc1nc[nH]c1C(N)=O category_label=met
compound=O=c1cc(-c2ccc(O)c(O)c2)oc2cc(O)cc(O)c12 category_label="not met"
compound=CN(C)c1nc(Cc2ccc(NC(=O)c3ccc(C(F)(F)F)cc3)cc2)nc(N(C)C)c1CC(=O)O category_label=met
compound="CN1[C@H]2CC[C@H]1CC(OC(=O)c1c[nH]c3ccccc13)C2 (some centres undefined)" category_label=met
compound=N[C@@H](CC(=O)N1CCn2c(nnc2C(F)(F)F)C1)Cc1cc(F)c(F)cc1F category_label=met
compound=CCOC(=O)N1c2ccc(C(F)(F)F)cc2[C@@H](N(Cc2cc(C(F)(F)F)cc(C(F)(F)F)c2)C(=O)OC)C[C@H]1CC category_label="not met"
compound=C[C@H]1[C@H](O)O[C@@H]2O[C@@]3(C)CC[C@@H]4[C@H](C)CC[C@@H]1[C@@]24OO3 category_label="not met"
compound=COc1ccc(C=CC(=O)Nc2ccccc2C(=O)O)cc1OC category_label=met
compound=Cc1ccc2c(=O)c3cccc(CC(=O)O)c3oc2c1C category_label=met
compound="CN1CC(=O)N2C(Cc3c([nH]c4ccccc34)[C@H]2c2ccc3c(c2)OCO3)C1=O (some centres undefined)" category_label="not met"
compound=C[C@@H]1CCO[C@H]2Cn3cc(C(=O)NCc4ccc(F)cc4F)c(=O)c(O)c3C(=O)N12 category_label=met
compound=CC(O)=C(C#N)C(=O)Nc1ccc(C(F)(F)F)cc1 category_label=met
compound="CC1C(=O)OC2C(O)C34C5CC(C(C)(C)C)C36C(OC(=O)C6O)OC4(C(=O)O5)C12O (centres undefined)" category_label=met
compound=CCCCC[C@H](O)C=C[C@H]1[C@H](O)CC(=O)[C@H]1CCCCCCC(=O)O category_label=met
compound=Cc1ccc2c(c1)C(=O)[C@]1(O)CCN(c3ccccc3)C1=N2 category_label=met
compound=CCOC(=O)c1c(CSc2ccccc2)n(C)c2cc(Br)c(O)c(CN(C)C)c12 category_label="not met"
compound=O=S(=O)(O)c1ccc2cc(N=Nc3cc(S(=O)(=O)O)c4cccnc4c3O)ccc2c1 category_label=met
compound=Cc1nc2c([nH]1)CCN(C(=O)c1ccc(NC(=O)c3ccccc3-c3ccccc3)cc1)c1ccccc1-2 category_label="not met"

====

experiment: qHTS profiling of the MIPE4 collection as inhibitors of Plasmodium falciparum (DD2) proliferation (Rep 2) (AID 743346); conditions: P. falciparum Dd2 in erythrocytes, SYBR Green DNA, 72 h; at 28.5 µM unless noted
METRIC_NAME: parasite growth, % of control (lower = inhibition) (%)

compound=OC[C@H]1O[C@@H](Oc2ccc(O)cc2)[C@H](O)[C@@H](O)[C@H]1O unit_string=% reported_result=127
compound=CC(C)C[C@H](NC(=O)c1cc2ccccc2s1)C(=O)N1CCN(C(=O)[C@H](CO)NS(=O)(=O)c2ccc(Cl)cc2Cl)CC1 unit_string=% reported_result=20.2
compound="CC1C(=O)OC2C(O)C34C5CC(C(C)(C)C)C36C(OC(=O)C6O)OC4(C(=O)O5)C12O (centres undefined)" unit_string=% reported_result=85.6
compound=N#Cc1ccc(Oc2ccc3c(c2)COB3O)cc1 unit_string=% reported_result=38.3

====

Entries and their Z-AUC values follow.
assay: qHTS drug screen for cell cycle checkpoint inhibitors in PARPi-resistant BRCA-mutant ovarian cancer cell lines. (AID 1963452); conditions: PEO1/OlaR viability, CellTiter-Glo luminescence, 96 h; measured here: PEO1 parental Z-AUC; stronger effect = lower value
METRIC_NAME: Z-AUC

molecule="CC[C@@H]([C@H](C)O)n1ncn(-c2ccc(N3CCN(c4ccc(OCC5CO[C@@](Cn6cncn6)(c6ccc(F)cc6F)C5)cc4)CC3)cc2)c1=O (stereo not given in full)" reported_result=-0.0959
molecule=CC(C)C[C@@H](N)[C@H](O)C(=O)N[C@H](C(=O)N[C@H](C(=O)N[C@@H](CC(=O)O)C(=O)O)C(C)C)C(C)C reported_result=-0.6
molecule=CCOC(=O)[C@@H](N)CCC(=O)N[C@@H](CSCc1ccccc1)C(=O)N[C@@H](C(=O)OCC)c1ccccc1 reported_result=1.04
molecule="Clc1ccc(COC(Cn2ccnc2)c2ccc(Cl)cc2Cl)c(Cl)c1 (stereo not given)" reported_result=0.118
molecule=C=C1c2cccc(O)c2C(O)=C2C(=O)[C@@]3(O)C(O)=C(C(N)=O)C(=O)[C@@H](N(C)C)[C@@H]3[C@@H](O)[C@H]12 reported_result=-0.453

====

experiment: qHTS of pediatric cancer cell lines to identify multiple opportunities for drug repurposing: Primary screen for U-2 OS cells (AID 1347096); conditions: U-2 OS viability, CellTiter-Glo luminescence, 48 h; series mostly up to 46 µM; note: nearly all actives have a fitted effect of over 50% in size
Results filed as inconclusive are left out. The source made the active and inactive calls. Calls follow the shape of the dose curve; as a rule, active = well fitted cell-killing curve with a large enough effect; inconclusive = small, poorly fitted or top-dose-only effect; inactive = flat fitted curve, though single readings scatter.
Labels: True (active), False (inactive)

compound=CN(C)c1nc(Cc2ccc(NC(=O)c3ccc(C(F)(F)F)cc3)cc2)nc(N(C)C)c1CC(=O)O category_label=False
compound=CNC(=O)c1cc(Oc2ccc(NC(=O)Nc3ccc(Cl)c(C(F)(F)F)c3)c(F)c2)ccn1 category_label=True
compound=CN(C)CC[C@H](CSc1ccccc1)Nc1ccc(S(=O)(=O)NC(=O)c2ccc(N3CCN(Cc4ccccc4-c4ccc(Cl)cc4)CC3)cc2)cc1[N+](=O)[O-] category_label=True
compound=O=C(Nc1ccccc1)Nc1ccc(-c2ccc(C(=O)[C@H]3CCC[C@H]3C(=O)O)cc2)cc1 category_label=False
compound="CNC1[C@H](O)C(O[C@@H]2C(O)C(O[C@H]3O[C@H]([C@@H](C)NC)CC[C@H]3N)[C@@H](N)C[C@H]2N)OC[C@]1(C)O (some centres not stated)" category_label=False
compound=O=C(c1ccc(C=Cc2n[nH]c3ccccc23)cc1)N1CCNCC1 category_label=False
compound=O=c1[nH]nc(OCCCc2ccc(Cl)cc2)c(NCc2cccnc2)c1Br category_label=True
compound=O=C(Nc1cccc(C(F)(F)F)c1)Nc1cc(S(=O)(=O)NC2CC2)ccc1-c1ccsc1 category_label=False
compound=CN(C)CCCNC(=O)c1ccc(-c2cc(O)c3ncccc3c2)cc1 category_label=False
compound=Cc1ccc2c(c1)c1c(n2CCc2ccc(C)nc2)CCN(C)C1 category_label=False
compound="COc1ccc(-c2nc3ccc(C4=NNC(=O)CC4C)cc3[nH]2)cc1 (configuration not stated)" category_label=False
compound=CCN1CCN(c2ccc(Nc3cc(N(C)C(=O)Nc4c(Cl)c(OC)cc(OC)c4Cl)ncn3)cc2)CC1 category_label=False

====

Quick reference: viability (% of control) of the listed items.
assay: High-throughput drug toxicity screening in the BPDCN cell line Cal-1 (AID 1224825); details: Cal-1 BPDCN cell viability, qHTS; at 45.8 µM (top of the series) unless noted;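 note: cells exposed to compounds for 48 h; 100% = DMSO and 0% = bortezomib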
METRIC_NAME: viability (% of control) (%)

compound=O=S(=O)(NCCNCC=Cc1ccc(Br)cc1)c1cccc2cnccc12 reported_result=57.7
compound=O=C(O)C1=CO[C@@H](O[C@@H]2O[C@H](CO)[C@H](O)[C@H](O)[C@H]2O)[C@@H]2C(CO)=CC[C@H]12 reported_result=23.1
compound=COc1cc2c(cc1OC)[C@@H]1Cc3ccc(OC)c(OC)c3CN1CC2 reported_result=20.2
compound=Cc1cc2c(cc1C1(c3ccc(C(=O)O)cn3)CC1)C(C)(C)CCC2(C)C reported_result=121
compound=CON(C)C(=O)N1N=C(c2cc(F)ccc2F)S[C@]1(CCCN)c1ccccc1 reported_result=7.01
compound="COc1nccc(-c2c(-c3ccc(F)cc3)ncn2C2CCC(O)CC2)n1 (configuration not stated)" reported_result=43.4
compound=Fc1ccc(C(c2ccc(F)cc2)N2CCN(CC=Cc3ccccc3)CC2)cc1 reported_result=30.9
